Form: system (Mu-type opioid receptor (Cavia porcellus, UniProt P97266)), quantity (IC50), values below.
Bridge positions count the residues as written; N and C are the ends. Peptide text beside a SMILES is read from it.
Number only, in nM; omit the unit.

{"compound": "CC[C@H](C)[C@@H]1NC(=O)[C@H](CCCN=C(N)N)NC(=O)[C@H](CCCN=C(N)N)NC(=O)[C@@H](NC(=O)[C@H](Cc2ccccc2)NC(=O)CNC(=O)CNC(=O)[C@@H](N)Cc2ccc(O)cc2)CSSC[C@@H](C(=O)N2CCC[C@H]2C(=O)N[C@@H](CCCCN)C(N)=O)NC1=O (H-YGGFCRRICPK-NH2; disulfide 5-9)", "tgt": "Mu-type opioid receptor (Cavia porcellus, UniProt P97266)", "output-unit": "nM", "experimental-value": 6.43}
{"compound": "CC(C)C[C@H](NC(=O)[C@H](Cc1ccccc1)NC(=O)CNC(=O)CNC(=O)[C@@H](N)Cc1ccc(O)cc1)C(=O)N[C@@H](CCCNC(=N)N)C(=O)N[C@@H](CCCNC(=N)N)C(=O)N[C@@H]1CSSC[C@H](C(=O)N[C@@H](CCCCN)C(N)=O)NC(=O)[C@H](CCCCN)NC(=O)[C@@H]2CCCN2C(=O)[C@H](CCCNC(=N)N)NC1=O", "tgt": "Mu-type opioid receptor (Cavia porcellus, UniProt P97266)", "output-unit": "nM", "experimental-value": 0.674}

Form: Entry = `CC[C@H](C)[C@@H]1NC(=O)[C@H](CCCN=C(N)N)NC(=O)[C@H](CCCN=C(N)N)NC(=O)[C@@H](NC(=O)[C@H](Cc2ccccc2)NC(=O)CNC(=O)[C@@H](C)NC(=O)[C@@H](N)Cc2ccc(O)cc2)CSSC[C@@H](C(N)=O)NC(=O)[C@@H]2CCCN2C(=O)[C@H](CCCN=C(N)N)NC1=O` | System = Mu-type opioid receptor (Cavia porcellus, UniProt P97266) | IC50 = ____
9.69

// same read-out, input: CC[C@H](C)[C@@H]1NC(=O)[C@H](CCCNC(=N)N)NC(=O)[C@@H](NC(=O)[C@H](CC(C)C)NC(=O)[C@H](Cc2ccccc2)NC(=O)CNC(=O)CNC(=O)[C@@H](N)Cc2ccc(O)cc2)CSSC[C@@H](C(=O)N[C@@H](CCCCN)C(N)=O)NC(=O)[C@H](CCCNC(=N)N)NC1=O (H-YGGFLCRIRCK-NH2; disulfide 6-10)
0.091

----------
target: Delta-type opioid receptor (Mus musculus); assay: Inhibition of delta-selective antagonist binding to opioid receptor of mouse vas dferens
Sequence (P32300 whole entry): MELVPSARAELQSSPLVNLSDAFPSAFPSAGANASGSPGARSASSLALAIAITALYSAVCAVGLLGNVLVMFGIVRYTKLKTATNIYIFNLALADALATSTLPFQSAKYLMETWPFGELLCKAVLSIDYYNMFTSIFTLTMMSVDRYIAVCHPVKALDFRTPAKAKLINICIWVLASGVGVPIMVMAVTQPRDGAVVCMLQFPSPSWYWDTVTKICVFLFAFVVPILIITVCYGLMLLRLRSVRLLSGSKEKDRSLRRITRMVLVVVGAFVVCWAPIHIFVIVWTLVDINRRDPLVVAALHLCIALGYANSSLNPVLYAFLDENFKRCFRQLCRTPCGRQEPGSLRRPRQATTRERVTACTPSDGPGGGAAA
Bridge positions count the residues as written; N and C are the ends. Peptide text beside a SMILES is read from it.
Each entry below carries its reported pIC50.
pIC50 here: minus log base 10 of the concentration, concentration in moles per litre.

{"molecule": "CC[C@H](C)[C@@H]1NC(=O)[C@H](CCCN=C(N)N)NC(=O)[C@H](CCCN=C(N)N)NC(=O)[C@@H](NC(=O)[C@H](Cc2ccccc2)NC(=O)CNC(=O)CNC(=O)[C@@H](N)Cc2ccc(O)cc2)CSSC[C@@H](C(=O)N[C@@H](CCCN=C(N)N)C(=O)N[C@@H](CCCCN)C(N)=O)NC1=O (H-YGGFCRRICRK-NH2; disulfide 5-9)", "pIC50": 5.20}

Look up pIC50 for this molecule: `CC[C@H](C)[C@@H]1NC(=O)[C@H](CCCNC(=N)N)NC(=O)[C@H](CCCNC(=N)N)NC(=O)[C@@H](NC(=O)[C@H](Cc2ccccc2)NC(=O)CNC(=O)CNC(=O)[C@@H](N)Cc2ccc(O)cc2)CSSC[C@@H](C(N)=O)NC(=O)[C@H](CC(C)C)NC(=O)[C@H](CCCCN)NC(=O)[C@H]2CCCN2C(=O)[C@H](CCCNC(=N)N)NC1=O`
5.39

----------
assay: Relative affinity for delta and kappa opioid receptors of guinea pig brain homogenate; settings: Cavia porcellus
parameter: Selectivity

{"smiles-repr": "CC[C@H](C)[C@H]1NC(=O)[C@H](CCCN=C(N)N)NC(=O)[C@@H](CCCN=C(N)N)NC(=O)[C@H](NC(=O)[C@H](Cc2ccccc2)NC(=O)CNC(=O)CNC(=O)[C@@H](N)Cc2ccccc2)CSSC[C@H](C(=O)O)NC(=O)[C@H]2CCCN2C(=O)[C@H](CCCN=C(N)N)NC1=O", "experimental-value": 26}
{"smiles-repr": "CC[C@H](C)[C@@H]1NC(=O)[C@@H](CCCN=C(N)N)NC(=O)[C@H](CCCN=C(N)N)NC(=O)[C@H](NC(=O)[C@H](Cc2ccccc2)NC(=O)CNC(=O)CNC(=O)[C@@H](N)Cc2ccc(O)cc2)CSSC[C@H](C(=O)N[C@@H](CCCCN)C(=O)O)NC(=O)[C@@H](CCCN=C(N)N)NC1=O", "experimental-value": 139}

Look up Selectivity for this molecule: `CC[C@H](C)[C@H]1NC(=O)[C@H](CCCN=C(N)N)NC(=O)[C@@H](CCCN=C(N)N)NC(=O)[C@H](NC(=O)[C@H](Cc2ccccc2)NC(=O)CNC(=O)CNC(=O)[C@@H](N)Cc2ccc(O)cc2)CSSC[C@H](C(=O)N2CCC[C@@H]2C(=O)N[C@H](CCCCN)C(=O)O)NC1=O`
36

// same read-out, input: `CC[C@H](C)[C@H]1NC(=O)[C@H](CCCN=C(N)N)NC(=O)[C@@H](CCCN=C(N)N)NC(=O)[C@H](NC(=O)[C@H](Cc2ccccc2)NC(=O)CNC(=O)CNC(=O)[C@@H](N)Cc2ccc(O)cc2)C(C)(C)SSC[C@H](C(=O)O)NC(=O)[C@H]2CCCN2C(=O)[C@H](CCCN=C(N)N)NC1=O`
165

// same read-out, input: `CC[C@H](C)[C@H]1NC(=O)[C@H](CCCN=C(N)N)NC(=O)[C@@H](NC(=O)[C@H](CC(C)C)NC(=O)[C@H](Cc2ccccc2)NC(=O)CNC(=O)CNC(=O)[C@@H](N)Cc2ccc(O)cc2)CSSC[C@@H](C(=O)N[C@@H](CCCCN)C(=O)O)NC(=O)[C@H](CCCN=C(N)N)NC1=O`
10

// same read-out, input: `CC[C@H](C)[C@H]1NC(=O)[C@H](CCCN=C(N)N)NC(=O)[C@@H](CCCN=C(N)N)NC(=O)[C@H](NC(=O)[C@H](Cc2ccccc2)NC(=O)CNC(=O)[C@@H](C)NC(=O)[C@@H](N)Cc2ccc(O)cc2)CSSC[C@H](C(=O)O)NC(=O)[C@H]2CCCN2C(=O)[C@H](CCCN=C(N)N)NC1=O`
1.3

// same read-out, input: `CC(C)C[C@H](NC(=O)[C@H](Cc1ccccc1)NC(=O)CNC(=O)CNC(=O)[C@@H](N)Cc1ccc(O)cc1)C(=O)N[C@@H](CCCN=C(N)N)C(=O)N[C@@H](CCCN=C(N)N)C(=O)N[C@H]1CSSC[C@H](C(=O)O)NC(=O)[C@@H](CC(C)C)NC(=O)[C@H](CCCCN)NC(=O)[C@H]2CCCN2C(=O)[C@H](CCCN=C(N)N)NC1=O`
55

----------
target: Kappa-type opioid receptor (Cavia porcellus); test: Inhibition of [3H]U-69593 binding to kappa opioid receptor of guinea pig brain homogenate
Sequence (P41144 whole entry): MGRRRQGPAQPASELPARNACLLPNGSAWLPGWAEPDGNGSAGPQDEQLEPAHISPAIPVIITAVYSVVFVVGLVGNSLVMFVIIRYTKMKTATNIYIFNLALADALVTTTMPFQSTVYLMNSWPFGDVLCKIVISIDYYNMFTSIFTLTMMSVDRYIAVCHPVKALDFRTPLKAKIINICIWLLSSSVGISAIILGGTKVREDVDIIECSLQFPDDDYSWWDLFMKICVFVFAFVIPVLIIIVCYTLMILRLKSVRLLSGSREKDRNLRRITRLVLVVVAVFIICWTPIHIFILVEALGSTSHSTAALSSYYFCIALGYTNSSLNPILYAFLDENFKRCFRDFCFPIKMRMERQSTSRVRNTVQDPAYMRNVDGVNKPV
Bridge positions count the residues as written; N and C are the ends. Peptide text beside a SMILES is read from it.
parameter: pIC50
pIC50 here: minus log base 10 of the concentration, concentration in moles per litre.

{"compound": "CC[C@H](C)[C@@H]1NC(=O)[C@H](CCCN=C(N)N)NC(=O)[C@H](CCCN=C(N)N)NC(=O)[C@@H](NC(=O)[C@H](Cc2ccccc2)NC(=O)CNC(=O)[C@@H](C)NC(=O)[C@@H](N)Cc2ccc(O)cc2)CSSC[C@@H](C(N)=O)NC(=O)[C@@H]2CCCN2C(=O)[C@H](CCCN=C(N)N)NC1=O", "parameter": "pIC50", "experimental-value": 7.09}

Look up pIC50 for this compound: CC[C@H](C)[C@@H]1NC(=O)[C@H](CCCNC(=N)N)NC(=O)[C@@H](NC(=O)[C@H](CC(C)C)NC(=O)[C@H](Cc2ccccc2)NC(=O)CNC(=O)CNC(=O)[C@@H](N)Cc2ccc(O)cc2)CSSC[C@@H](C(=O)N[C@@H](CCCCN)C(N)=O)NC(=O)[C@H](CCCNC(=N)N)NC1=O (H-YGGFLCRIRCK-NH2; disulfide 6-10)
10.33

// same read-out, input: CC[C@H](C)[C@@H]1NC(=O)[C@H](CCCNC(=N)N)NC(=O)[C@H](CCCNC(=N)N)NC(=O)[C@@H](NC(=O)[C@H](Cc2ccccc2)NC(=O)CNC(=O)CNC(=O)[C@@H](N)Cc2ccccc2)CSSC[C@@H](C(N)=O)NC(=O)[C@@H]2CCCN2C(=O)[C@H](CCCNC(=N)N)NC1=O (H-FGGFCRRIRPC-NH2; disulfide 5-11)
7.82
